From: patent US11591311B2

Biological target: AHR (Homo sapiens)
Construct: U87 glioblastoma cells (ATCC) endogenously expressing AHR; host or cells: U87 glioblastoma cells, stably transfected with DRE-firefly luciferase and renilla reporter constructs
Experiment: In vitro assay 3: AHR-regulated CYP1A1 expression in human cell line (U937, qPCR)
Type: cell-based
Details: human monocytic U937 cells, CYP1A1 expression induced with 200 μM KA, 6 hours, quantitative PCR; read-out: Assay 3: Hum CYP1A1 Antagonism IC50
assayMetric: pIC50
In textbook form, pIC50 equals minus log to base ten of the concentration in mol/L.

>>> val("COc1ccc(-c2cc(C(=O)N[C@@H](C)CO)c(=O)n(-c3cccc(F)c3)n2)cn1 [Example 21]")
6.36
>>> val("C[C@@H](NC(=O)c1cc(-c2ccc(C(F)(F)F)nc2)nn(-c2cccc(F)c2)c1=O)C(C)(C)O [Example 7]")
7.32
>>> val("C[C@@H](CO)NC(=O)c1cc(-c2ccc(C(F)(F)F)nc2)nn(-c2cc(F)cc(F)c2)c1=O [Example 1]")
8.28
>>> val("O=C(N[C@H]1CCC[C@H]1O)c1cc(-c2ccc(C(F)(F)F)nc2)nn(-c2cccc(F)c2)c1=O [Example 8]")
7.99
>>> val("C[C@@H](CO)NC(=O)c1cc(-c2cnc(C(F)(F)F)nc2)nn(-c2cccc(F)c2)c1=O [Example 11]")
6.49
>>> val("C[C@@H](CO)NC(=O)c1cc(-c2ccc(C(F)(F)F)nc2)nn(-c2ccccc2)c1=O [Example 5]")
6.55
>>> val("C[C@@H](NC(=O)c1cc(-c2ccc(N(C)C)nc2)nn(-c2cccc(F)c2)c1=O)C(C)(C)O [Example 19]")
6.83
>>> val("C[C@@H](CO)NC(=O)c1cc(-c2ccc(C(F)(F)F)nc2)nn(-c2cc(F)cc(Cl)c2)c1=O [Example 2]")
7.43

GET /values?readout=pIC50&item= C[C@@H](CO)NC(=O)c1cc(-c2ccc(C(F)(F)F)nc2)nn(-c2cccc(Cl)c2)c1=O [Example 4]
6.65

Moving on to the next compound: C[C@H](NC(=O)c1cc(-c2ccc(C(F)(F)F)nc2)nn(-c2cccc(F)c2)c1=O)C(C)(C)O [Example 9]
7.60

Continue with C[C@@H](CO)NC(=O)c1cc(-c2ccc(C(F)F)nc2)nn(-c2cccc(F)c2)c1=O [Example 13]
6.70

Try this compound too: O=C(N[C@H]1CCC[C@@H]1O)c1cc(-c2ccc(C(F)(F)F)nc2)nn(-c2cccc(F)c2)c1=O [Example 6]
8.08

* * *

Biological target: AHR (Homo sapiens)
Construct: U87 glioblastoma cells (ATCC) endogenously expressing AHR; host or cells: U87 glioblastoma cells, stably transfected with DRE-firefly luciferase and renilla reporter constructs
Assay: In vitro assay 1: AHR-luc transactivation assay, antagonism in human cell line (U87 glioblastoma cells prestimulated with kynurenic acid)
Type: cell-based
pIC50: −log10 of the molar value.
Outcome label depends on pIC50 relative to 7: at/above gives criterion met, below gives criterion not met.

Reference set (5 entries):
>>> assignedcategory("O=C(N[C@H]1CCC[C@@H]1O)c1cc(-c2ccc(C(F)(F)F)nc2)nn(-c2cccc(F)c2)c1=O [Example 6]")
"criterion met"
>>> assignedcategory("COc1ccc(-c2cc(C(=O)N[C@H](C)C(C)(C)O)c(=O)n(-c3cccc(F)c3)n2)cn1 [Example 20]")
"criterion not met"
>>> assignedcategory("O=C(N[C@H]1COCC[C@H]1O)c1cc(-c2ccc(C(F)(F)F)nc2)nn(-c2cccc(F)c2)c1=O [Example 40]")
"criterion met"
>>> assignedcategory("C[C@@H](CO)NC(=O)c1cc(-c2ccc(C(F)(F)F)nc2)nn(-c2cccc(F)c2)c1=O [Example 18]")
"criterion met"
>>> assignedcategory("O=C(N[C@H]1CCC[C@H]1O)c1cc(-c2ccc(C(F)F)nc2)nn(-c2cccc(F)c2)c1=O [Example 30]")
"criterion met"

Say whether O=C(N[C@H]1CCC[C@H]1O)c1cc(-c2ccc(C(F)(F)F)nc2)nn(-c2cccc(F)c2)c1=O [Example 8] shows pIC50 of 7 or more.
criterion met

* * *

Molecular target: AHR (Homo sapiens)
Construct: U87 glioblastoma cells (ATCC) endogenously expressing AHR; host or cells: U87 glioblastoma cells, stably transfected with DRE-firefly luciferase and renilla reporter constructs
Experiment: In vitro assay 1: AHR-luc transactivation assay, antagonism in human cell line (U87 glioblastoma cells prestimulated with kynurenic acid)
Type: cell-based
# pIC50 per record follows
Formally, pIC50 is defined as -log10 of the concentration c, with c in mol/L.

Consider the following illustrative entries.
>>> val("C[C@@H](CO)NC(=O)c1cc(-c2ccc(C(F)(F)F)cn2)nn(-c2ccccc2)c1=O [Example 42]")
6.41
>>> val("O=C(N[C@H]1COCC[C@@H]1O)c1cc(-c2ccc(C(F)F)nc2)nn(-c2cccc(F)c2)c1=O [Example 37]")
6.57
>>> val("C[C@@H](CO)NC(=O)c1cc(-c2ccc(C(F)(F)F)cn2)nn(-c2ccc(F)c(F)c2)c1=O [Example 43]")
6.04
>>> val("C[C@@H](CO)NC(=O)c1cc(-c2ccc(C(F)(F)F)nc2)nn(-c2cc(F)cc(Cl)c2)c1=O [Example 2]")
7.63

Next compound, pIC50 to be filled in.
What does the record list as pIC50 for CC(C)(O)CNC(=O)c1cc(-c2ccc(C(F)F)nc2)nn(-c2cccc(F)c2)c1=O [Example 34] ?
6.81

* * *

Biological target: AHR (Homo sapiens)
Construct: U87 glioblastoma cells (ATCC) endogenously expressing AHR; host or cells: U87 glioblastoma cells, stably transfected with DRE-firefly luciferase and renilla reporter constructs
Test: In vitro assay 1: AHR-luc transactivation assay, antagonism in human cell line (U87 glioblastoma cells prestimulated with kynurenic acid)
Assay type: cell-based
assayMetric: pIC50
Please report pIC50 as the negative decimal logarithm of the molar concentration, giving only the number.

>>> val("C[C@@H](NC(=O)c1cc(-c2ccc(C(F)F)nc2)nn(-c2cccc(F)c2)c1=O)C(C)(C)O")
7.20
>>> val("C[C@@H](CO)NC(=O)c1cc(-c2ccc(C(F)(F)F)cn2)nn(-c2cccc(F)c2)c1=O")
7.07
>>> val("C[C@H](O)[C@H](C)NC(=O)c1cc(-c2cnc(C(F)(F)F)nc2)nn(-c2cccc(F)c2)c1=O")
6.77

As a next step, examine the molecule that follows.
Recorded pIC50 of CC(C)(O)CNC(=O)c1cc(-c2cnc(C(F)(F)F)nc2)nn(-c2cccc(F)c2)c1=O , please.
5.69

* * *

Parameter IC50: see the listing below.
Target: AHR (Homo sapiens, UniProt P35869)
Construct: U87 glioblastoma cells (ATCC) endogenously expressing AHR; host or cells: U87 glioblastoma cells, stably transfected with DRE-firefly luciferase and renilla reporter constructs
Sequence (P35869 11-848): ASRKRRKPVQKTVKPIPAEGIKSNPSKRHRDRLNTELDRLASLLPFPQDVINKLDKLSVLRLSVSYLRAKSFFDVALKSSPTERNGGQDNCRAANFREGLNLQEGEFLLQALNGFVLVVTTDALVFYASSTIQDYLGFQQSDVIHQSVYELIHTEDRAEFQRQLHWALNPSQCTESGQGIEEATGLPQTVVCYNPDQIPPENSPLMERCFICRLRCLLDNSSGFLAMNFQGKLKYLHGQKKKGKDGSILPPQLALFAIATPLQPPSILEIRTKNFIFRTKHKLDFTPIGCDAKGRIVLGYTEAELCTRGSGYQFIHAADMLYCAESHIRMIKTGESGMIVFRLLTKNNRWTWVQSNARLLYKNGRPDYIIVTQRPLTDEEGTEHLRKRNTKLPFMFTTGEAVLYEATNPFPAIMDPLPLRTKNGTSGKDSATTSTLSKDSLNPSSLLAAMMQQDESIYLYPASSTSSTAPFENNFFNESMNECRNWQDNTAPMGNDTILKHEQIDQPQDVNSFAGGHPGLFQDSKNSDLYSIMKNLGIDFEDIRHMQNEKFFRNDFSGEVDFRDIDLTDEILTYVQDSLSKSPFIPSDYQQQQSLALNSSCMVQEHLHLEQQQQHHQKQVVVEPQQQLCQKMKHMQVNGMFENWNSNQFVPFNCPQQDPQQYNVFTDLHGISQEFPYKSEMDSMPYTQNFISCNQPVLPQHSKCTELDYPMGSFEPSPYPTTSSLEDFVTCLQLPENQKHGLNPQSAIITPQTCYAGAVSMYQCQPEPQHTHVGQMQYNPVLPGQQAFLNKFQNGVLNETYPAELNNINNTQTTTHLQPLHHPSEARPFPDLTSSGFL
Test: In vitro assay 3: AHR-regulated CYP1A1 expression in human cell line (U937, qPCR)
Format: cell-based
Conditions: human monocytic U937 cells, CYP1A1 expression induced with 200 μM KA, 6 hours, quantitative PCR; read-out: Assay 3: Hum CYP1A1 Antagonism IC50
Description: In Vitro Assay 3: AHR-Regulated CYP1A1 Expression in Human Cell Line To assess the AHR inhibitory activity of the substances described in this application, the ability thereof to antagonise ligand-induced AHR gene regulation in a dose-dependent manner was quantified. For this purpose, quantitative PCR analysis was used to determine expression of the AHR-regulated gene CYP1A1 in a human monocytic U937 cell line upon stimulation with 200 μM KA in the presence and absence of AHR inhibitor. […]
Give the value in nM but do not write nM after it.

May I ask what IC50 has been recorded for C[C@@H](CO)NC(=O)c1cc(-c2ccc(C(F)(F)F)nc2)nn(-c2cccc(F)c2)c1=O [Example 18] ?
31.4

Now the molecule C[C@@H](NC(=O)c1cc(-c2ccc(C(F)F)nc2)nn(-c2cccc(F)c2)c1=O)C(C)(C)O [Example 22]
186

Another molecule: CC(C)(O)CNC(=O)c1cc(-c2ccc(C(F)(F)F)nc2)nn(-c2cccc(F)c2)c1=O [Example 10]
110

* * *

Target: AHR (Homo sapiens, UniProt P35869)
Construct: U87 glioblastoma cells (ATCC) endogenously expressing AHR; host or cells: U87 glioblastoma cells, stably transfected with DRE-firefly luciferase and renilla reporter constructs
Test: In vitro assay 1: AHR-luc transactivation assay, antagonism in human cell line (U87 glioblastoma cells prestimulated with kynurenic acid)
Format: cell-based
assayMetric: pIC50
For clarity, pIC50 is expressed as the negative log10 of concentration in mol/L.

Some entries whose results are on file:
>>> val("C[C@@H](CO)NC(=O)c1cc(-c2ccc(C(F)(F)F)cn2)nn(-c2cc(F)cc(F)c2)c1=O")
7.02
>>> val("CC(C)(O)CNC(=O)c1cc(-c2ccc(C(F)(F)F)nc2)nn(-c2cccc(F)c2)c1=O")
7.14

With those in mind, consider the next compound.
Quick one: pIC50 of C[C@@H](CO)NC(=O)c1cc(-c2ccc(C(F)(F)F)nc2)nn(-c2ccccc2)c1=O ?
6.79
